System: rat and mouse 2-year carcinogenicity bioassay, tumor evidence
Procedure text: Consolidated carcinogenicity assay summary data
Measurement context: Route (rodents): Dosed feed
Records with an inconclusive call do not appear. Active and inactive are the calls of the source. The rule behind the calls is not given here.
Recorded metric: carcinogen call

These solved cases illustrate the format of a correct answer.
Molecule	carcinogen call
Cc1ccc(Cl)cc1N	active; no evidence
Cc1cc(Cl)ccc1N	active; no evidence
O=C(O)CN(CC(=O)O)CC(=O)O	active; clear evidence
O=[N+]([O-])c1ccc(Oc2ccc(Cl)cc2Cl)cc1	active; no evidence
CC(=O)Nc1ccc(N=Nc2cc(C)ccc2O)cc1	active; clear evidence
CN(C)c1ccc(C(=O)c2ccc(N(C)C)cc2)cc1	active; clear evidence
NCCCCCCCCCCC(=O)O	active; clear evidence
O=[N+]([O-])c1ccc2nc[nH]c2c1	active; no evidence
Nc1ccccc1-c1ccccc1	active; no evidence
CCCCC(CC)COC(=O)CCCCC(=O)OCC(CC)CCCC (centres undefined)	active; no evidence

What value of carcinogen call has been recorded for this entry: O=c1c(-c2ccc(O)cc2)coc2cc(O)cc(O)c12
active; no evidence

What does the data say about its carcinogen call? Entry: c1ccc(NNc2ccccc2)cc1
active; clear evidence

###

Tested on: rat and mouse 2-year carcinogenicity bioassay, tumor evidence
Procedure text: Consolidated carcinogenicity assay summary data
Measurement context: Route (rodents): Inhalation
Results filed as inconclusive are left out. Activity calls are given as the source filed them. The rule behind the calls is not given here.
Recorded metric: carcinogen call

Compound	carcinogen call
[O]=[Sb][O][Sb]=[O]	active; some evidence
C1CO1	active
CCBr	active; some evidence
C=C(C)C	active; some evidence
CC(C)c1ccccc1	active; clear evidence

Entry CCc1ccccc1 : reported carcinogen call = ?
active; clear evidence

Reported carcinogen call, compound OCc1ccco1 : ____
active; some evidence

Quick one: carcinogen call for CC(=O)CC(C)C ?
active; some evidence

State the recorded carcinogen call for this entry: [P]#[In]
active; clear evidence

###

Tested on: rat and mouse 2-year carcinogenicity bioassay, tumor evidence
Procedure text: Consolidated carcinogenicity assay summary data
Measurement context: Route (rodents): Dosed feed
Records with an inconclusive call do not appear. The source made the active and inactive calls. The rule behind the calls is not given here.
Recorded metric: carcinogen call

Take a look at these entries with their results.
Compound	carcinogen call
CNC(=S)N(C)C	active; no evidence
O=C1C2CC=CCC2C(=O)N1SC(Cl)(Cl)Cl (stereo not drawn)	active; no evidence
Nc1cc(Cl)c(N)c(Cl)c1	active; no evidence
Nc1nc(N)nc(N)n1	active; clear evidence
O=C([O-])c1cc(N=Nc2ccc(-c3ccc(N=Nc4c(O)ccc(N=Nc5cc(S(=O)(=O)[O-])ccc5[O-])c4[O-])cc3)cc2)ccc1O.[Cu+2].[Na+].[Na+]	active; no evidence
Cc1ccccc1[N+](=O)[O-]	active; clear evidence
Nc1ccc(Oc2ccc(N)cc2)cc1	active; clear evidence
Nc1cc(S(=O)(=O)O)cc2cc(S(=O)(=O)O)c(N=Nc3ccc(-c4ccc(N=Nc5c(S(=O)(=O)O)cc6cc(S(=O)(=O)O)cc(N)c6c5O)cc4)cc3)c(O)c12	active; clear evidence

# input for lookup
Give its carcinogen call value. Item: COc1ccc([N+](=O)[O-])cc1N
active; clear evidence

###

System: rat and mouse 2-year carcinogenicity bioassay, tumor evidence
Procedure text: Consolidated carcinogenicity assay summary data
Measurement context: Route (rodents): Dosed feed
Records with an inconclusive call do not appear. The source made the active and inactive calls. The rule behind the calls is not given here.
Recorded metric: carcinogen call

Study these solved cases before continuing.
Molecule	Assay system	Experimental value
Cc1ccc([N+](=O)[O-])cc1N	rat and mouse 2-year carcinogenicity bioassay, tumor evidence	active; no evidence
CCn1cc(C(=O)O)c(=O)c2ccc(C)nc21	rat and mouse 2-year carcinogenicity bioassay, tumor evidence	active; clear evidence
COc1cc(-c2ccc(N=C=O)c(OC)c2)ccc1N=C=O	rat and mouse 2-year carcinogenicity bioassay, tumor evidence	active; clear evidence
ClC1=C(Cl)C2(Cl)C3C(Cl)C=CC3C1(Cl)C2(Cl)Cl (configuration not stated)	rat and mouse 2-year carcinogenicity bioassay, tumor evidence	active; no evidence
CCCCC(CC)COC(=O)c1ccccc1C(=O)OCC(CC)CCCC (configuration not stated)	rat and mouse 2-year carcinogenicity bioassay, tumor evidence	active; clear evidence
COc1ccc(C)cc1N	rat and mouse 2-year carcinogenicity bioassay, tumor evidence	active; clear evidence
OC(c1ccc(Cl)cc1)(c1ccc(Cl)cc1)C(Cl)(Cl)Cl	rat and mouse 2-year carcinogenicity bioassay, tumor evidence	active; no evidence
CCNC(=O)Nc1ncc([N+](=O)[O-])s1	rat and mouse 2-year carcinogenicity bioassay, tumor evidence	active; no evidence
Nc1ccc(Sc2ccc(N)cc2)cc1	rat and mouse 2-year carcinogenicity bioassay, tumor evidence	active; clear evidence

Now let's try a different one.
Requested field: carcinogen call. Item: O=P(OCC(Br)CBr)(OCC(Br)CBr)OCC(Br)CBr (configuration not stated)
active; clear evidence

###

System: rat and mouse 2-year carcinogenicity bioassay, tumor evidence
Procedure text: Consolidated carcinogenicity assay summary data
Measurement context: Route (rodents): Gavage
Records with an inconclusive call do not appear. The source made the active and inactive calls. How the calls were made is not given here.
Recorded metric: carcinogen call

Illustrative cases are given below, each with its answer.
Structure smiles string	Experimental value
c1ccccc1	active; clear evidence
ClC=C(Cl)Cl	active; no evidence
O=C1CCc2ccccc2O1	active; some evidence
O=Cc1ccc(CO)o1	active; no evidence
Nc1ccc([N+](=O)[O-])cc1O	active; some evidence

Name the recorded carcinogen call for Oc1ccc(Cl)cc1Cc1ccccc1 .
active; no evidence

###

Tested on: rat and mouse 2-year carcinogenicity bioassay, tumor evidence
Procedure text: Consolidated carcinogenicity assay summary data
Measurement context: Route (rodents): Dosed feed
Inconclusive results are not listed. Active and inactive are the calls of the source. How the calls were made is not given here.
Recorded metric: carcinogen call

Consider the following illustrative entries.
Molecule	Recorded metric	Experimental value
CN(C)C(=O)Nc1ccc(Cl)cc1	carcinogen call	active; clear evidence
Nc1ccc(S(=O)(=O)c2ccc(N)cc2)cc1	carcinogen call	active; clear evidence
Nc1ccc(N)c2c1C(=O)c1c(N)ccc(N)c1C2=O	carcinogen call	active; clear evidence
CN(C)c1ccc(Cc2ccc(N(C)C)cc2)cc1	carcinogen call	active; clear evidence
COc1ccccc1[N+](=O)[O-]	carcinogen call	active; clear evidence

In the following, a different molecule is considered.
State its carcinogen call on rat and mouse 2-year carcinogenicity bioassay, tumor evidence: Nc1cc(Cl)cc(C(=O)O)c1Cl
active; no evidence

###

Tested on: rat and mouse 2-year carcinogenicity bioassay, tumor evidence
Procedure text: Consolidated carcinogenicity assay summary data
Measurement context: Route (rodents): Topical
Text: Cancer Evaluation Criteria The National Toxicology Program describes the results of individual experiments on a chemical agent and notes the strength of the evidence for conclusions regarding each study. […] Other organizations, such as the International Agency for Research on Cancer, assign a strength of evidence for conclusions based on an examination of all available evidence, including animal studies such as those conducted by the NTP, epidemiologic studies, and estimates of exposure. […]
Results filed as inconclusive are left out. The source made the active and inactive calls. How the calls were made is not given here.
Recorded metric: carcinogen call

Worked cases, answers included:
Compound	Assay system	carcinogen call
C1CC2OC2CC1C1CO1 (centres undefined)	rat and mouse 2-year carcinogenicity bioassay, tumor evidence	active; clear evidence
OCC(Br)CBr (centres undefined)	rat and mouse 2-year carcinogenicity bioassay, tumor evidence	active; clear evidence
OCCNCCO	rat and mouse 2-year carcinogenicity bioassay, tumor evidence	active; no evidence
Oc1cccc(O)c1O	rat and mouse 2-year carcinogenicity bioassay, tumor evidence	active; no evidence

Item CCCCCCCCCCCC(=O)N(CCO)CCO has what recorded carcinogen call?
active; no evidence

###

System: rat and mouse 2-year carcinogenicity bioassay, tumor evidence
Procedure text: Consolidated carcinogenicity assay summary data
Measurement context: Route (rodents): Gavage
Results filed as inconclusive are left out. The source made the active and inactive calls. The rule behind the calls is not given here.
Recorded metric: carcinogen call

Solved entries (count: 8):
COc1c(Cl)c(Cl)c(Cl)c(Cl)c1Cl active; some evidence
ClC(Cl)(Cl)C(Cl)(Cl)Cl active; clear evidence
O=P(OCCCl)(OCCCl)OCCCl active; clear evidence
ClCC(Cl)CCl active; clear evidence
S=c1[nH]c2ccccc2s1 active; some evidence
CC1=CC(=O)CC(C)(C)C1 active; some evidence
Oc1ccc(O)cc1 active; some evidence
COP(=O)(OC)OC active; clear evidence

Consider the additional molecule presented here.
Missing value: carcinogen call, rat and mouse 2-year carcinogenicity bioassay, tumor evidence, entry C[C@@H]1Cc2c(Cl)cc(C(=O)N[C@@H](Cc3ccccc3)C(=O)O)c(O)c2C(=O)O1 . Fill in?
active; clear evidence

###

Tested on: rat and mouse 2-year carcinogenicity bioassay, tumor evidence
Procedure text: Consolidated carcinogenicity assay summary data
Measurement context: Route (rodents): Dosed water
Inconclusive results are not listed. Calls of active or inactive are those of the source. The rule behind the calls is not given here.
Recorded metric: carcinogen call

Compound	Experimental value
COc1cc(-c2ccc(N)c(OC)c2)ccc1N	active; clear evidence
Cc1cc(-c2ccc(N)c(C)c2)ccc1N	active; clear evidence
CC(C)(C)O	active; some evidence
Nc1ccc(Cc2ccc(N)cc2)cc1	active; clear evidence
C1COCCO1	active; clear evidence

Need carcinogen call of NC(=O)C1CO1 (stereo unspecified) , thanks.
active; clear evidence

Need carcinogen call of c1ccncc1 , thanks.
active; some evidence

Which carcinogen call value belongs to [O-][Cl+2]([O-])O ?
active; some evidence

// lookup carcinogen call for C=CC(N)=O
active; clear evidence
